Biological target: Bile acid receptor (Homo sapiens)
Assay: Agonist activity at human FXR LBD assessed as SRC1 peptide recruitment by FRET assay relative to GW 4064
Type: functional
Record form. Attribute: Activity. Fill in for each entry.

Recorded result, "CC(C)COc1cc(C(=O)O)nc2ccc(-c3ccc(OCc4c(-c5c(Cl)cccc5Cl)noc4C(C)C)cc3)cc12" , Activity: 105%

Recorded result, "CCc1cc(C(=O)O)nc2ccc(-c3ccc(OCc4c(-c5c(Cl)cccc5Cl)noc4C(C)C)cc3)cc12" , Activity: 106%

Recorded result, "Cc1nc(C(=O)O)nc2ccc(-c3ccc(OCc4c(-c5c(Cl)cccc5Cl)noc4C(C)C)cc3)cc12" , Activity: 102%

Recorded result, "CC(C)c1onc(-c2c(Cl)cccc2Cl)c1COc1ccc(-c2ccc3c(C(=O)O)ccnc3c2)cc1" , Activity: 99%

Recorded result, "CC(C)c1onc(-c2c(Cl)cccc2Cl)c1COc1ccc(-c2cc3ccc(C(=O)O)nc3cc2F)cc1" , Activity: 115%

Recorded result, "CCOc1cc(C(=O)O)nc2ccc(-c3ccc(OCc4c(-c5c(Cl)cccc5Cl)noc4C(C)C)cc3)cc12" , Activity: 99%

Recorded result, "CCCOc1cc(C(=O)O)nc2ccc(-c3ccc(OCc4c(-c5c(Cl)cccc5Cl)noc4C(C)C)cc3)cc12" , Activity: 113%

Recorded result, "CC(C)c1onc(-c2c(Cl)cccc2Cl)c1COc1ccc(-c2ccc3cc(C(=O)O)ncc3c2)cc1" , Activity: 83%
